Listed below: cytotoxicity at 10 µM values for each entry.
Test: Toxicity liver stage against HepG2, at 10uM
Assay type: cell-based
Set-up: test concentration 10 uM, cell line HepG2-A16-CD81EGFP
Conditions: human, HepG2-A16-CD81EGFP cells; read-out: INHIBITION
Field: numeric (%). Do not append units.

Example cases with answers are listed next.
c1ccc(-c2ccc(C3CNCCO3)nc2)cc1 (configuration not stated); 2.36
Cc1ncsc1CN1CC(C)(C2CC2)CC1=O (configuration not stated); 0.832
CC1CCC(n2cc3nc(N)[nH]cc-3c2=O)CC1 (configuration not stated); -0.0237
COc1cccc(N2CCN(Cc3cccc(CCN)c3)CC2=O)c1; -1.42
CNS(=O)(=O)c1cccc(CNC(=O)c2c(C)oc(C)c2C)c1; -1.3
CSCC[C@H](N)C(=O)NCc1cc2n(n1)CCCN(C(=O)C1CCC1)C2; -12.9
CN(Cc1c(F)cccc1Cl)C(=O)CN(C)C1CCc2ccccc21 (configuration not stated); 11.3
CCc1c(C)n(CC(=O)OC)c2nc3ccccc3n2c1=O; 1.44
O=C(c1cnccn1)N1CCOCC2(CCN(C3CCOCC3)C2)C1 (configuration not stated); -7.94
COc1cc(C)cc(C(C(=O)O)N(C)Cc2cnn(C)c2)c1OC (configuration not stated); 7.87

Query block: Could you share which cytotoxicity at 10 µM value was measured for CCN(C(=O)NCc1ncc(C)c(OC)c1C)C(C)c1cccnc1 (configuration not stated) ?
Result block: 1.84

Query block: Could you share which cytotoxicity at 10 µM value was measured for CN(CCc1ccc2c(c1)CCO2)C1CCS(=O)(=O)CC1 ?
Result block: -7.94

* * *

Experiment: Toxicity liver stage against HepG2, at 10uM
Format: cell-based
Set-up: test concentration 10 uM, cell line HepG2-A16-CD81EGFP
Details: human, HepG2-A16-CD81EGFP cells; read-out: INHIBITION
MEASURED PARAMETER: cytotoxicity at 10 µM (%)
Field: numeric (%). Do not append units.

Example cases with answers are listed next.
CCOc1ccccc1CNC(=O)N1CCC(Cc2cnn(C)c2)C1 (stereo unspecified); -7.3
CC(C)c1noc(C(C)N2CCN(Cc3nc4ccccc4[nH]3)CC2)n1 (stereo unspecified); -2.16

Query block: Could you share which cytotoxicity at 10 µM value was measured for O=C1N[C@@H]2CCN(C(=O)N3CCOCC3)[C@@H]2C(=O)N1Cc1ccccc1 ?
Result block: -3.36

Query block: Could you share which cytotoxicity at 10 µM value was measured for COCC(=O)Nc1cnc(N2CCCC2)nc1 ?
Result block: -5.93

Query block: Could you share which cytotoxicity at 10 µM value was measured for O=C(c1ccccc1-n1cccn1)N1CCCN(c2cccnn2)CC1 ?
Result block: 7.03

Query block: Could you share which cytotoxicity at 10 µM value was measured for O=C(CSC1=NS(=O)(=O)c2cc(F)ccc2N1)c1ccccc1 ?
Result block: -10.7

* * *

Listed below: cytotoxicity at 10 µM values for each entry.
Assay: Toxicity liver stage against HepG2, at 10uM
Assay type: cell-based
Set-up: test concentration 10 uM, cell line HepG2-A16-CD81EGFP
Settings: human, HepG2-A16-CD81EGFP cells; read-out: INHIBITION
Field: numeric (%). Do not append units.

Query block: Could you share which cytotoxicity at 10 µM value was measured for O=C1CCC[C@]2(CN(S(=O)(=O)N3CCCCC3)C[C@H]2c2cccnc2)N1 ?
Result block: -0.217

Query block: Could you share which cytotoxicity at 10 µM value was measured for Cc1cccc(CN2CCO[C@H]3[C@H](Oc4ccccn4)CC[C@@H]32)n1 ?
Result block: -4.65

Query block: Could you share which cytotoxicity at 10 µM value was measured for Clc1cccc2c3c([nH]c12)CCN(Cc1cc2n(n1)CCNC2)C3 ?
Result block: -0.735

Query block: Could you share which cytotoxicity at 10 µM value was measured for CN(Cc1noc2c1CCCC2)C(=O)Cn1c(=O)cnc2ccccc21 ?
Result block: -38.9

Query block: Could you share which cytotoxicity at 10 µM value was measured for Cc1ccc(CN2C[C@@H]3CCCO[C@@H]3[C@H](NS(C)(=O)=O)C2)o1 ?
Result block: 5.16
